target: recombinant human NKp30 extracellular domain, his-tagged (human) (UniProt O14931); assay: BLI, SEEDbody on anti-human Fc sensors, soluble NKp30, 1:1 fit
Sequence (O14931 19-135): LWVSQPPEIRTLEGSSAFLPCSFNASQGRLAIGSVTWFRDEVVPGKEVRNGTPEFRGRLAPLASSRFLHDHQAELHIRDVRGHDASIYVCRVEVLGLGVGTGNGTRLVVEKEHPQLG
pKd for assorted binders
The value called pKd is obtained by taking minus log10 of the concentration in mol/L.

A selection of reference data follows.
INSERT INTO measurements (binder, reported_metric, observed_measurement) VALUES
  ('VHH6 SEEDbody eff- (bispecific antibody, part only; not given: silenced SEED Fc and cetuximab Fab, V domains shown, not shown: another chain or arm of the molecule; a dimerising Fc or GST; small tags and cut ends) VHH: DVQLQESGGGLVQTGGSLRLSCAASGLPFSKYAIAWFRQAPGKESEFLVVVSWSGDKFYQDNMKGRCTISRDNAKNTAYLQINSLQPEDTAVYYCAASGSYPVTDRYFYNFWGQGTQVTVSS', 'pKd', 6.53),
  ('VHH2 SEEDbody eff- (bispecific antibody, part only; not given: silenced SEED Fc and cetuximab Fab, V domains shown, not shown: another chain or arm of the molecule; a dimerising Fc or GST; small tags and cut ends) VHH: DVQLQESGGGLVQAGGSLRLSCAVSGQTWTNYHIGWFRQAPGKARESVASIEWGGRGTYATDSVKGRFTISRDNAKNTVYLQMNSLKPEDTAVYYCAAQSSSRSPLESNYDYWGQGTQVTVSS', 'pKd', 8.49),
  ('VHH11 SEEDbody eff- (bispecific antibody, part only; not given: silenced SEED Fc and cetuximab Fab, V domains shown, not shown: another chain or arm of the molecule; a dimerising Fc or GST; small tags and cut ends) VHH: DVQLQESGGGLVQAGGSLRLSCAASGRTFSSDFMGWFRQAPGKEREFVAAIHWSGGSTSYADSVKGRFTISRDNAKDTVYLLMNSLKLEDTAVYYCAAEIRWLTTGWANLGSWGQGTQVTVSS', 'pKd', 8.99),
  ('VHH5 SEEDbody eff- (bispecific antibody, part only; not given: silenced SEED Fc and cetuximab Fab, V domains shown, not shown: another chain or arm of the molecule; a dimerising Fc or GST; small tags and cut ends) VHH: DVQLQESGGGLVQPGESLRLSCLVSGVTYHFYDITWFRQAPGLEREGVSCISYASGSTKFADSVKGRFTISRDNAKNAVYLQMNSLKPEDTAVYFCATQGSGSCSDFMSADSVLSWGQGTQVTVSS', 'pKd', 9.54),
  ('VHH14 SEEDbody eff- (bispecific antibody, part only; not given: silenced SEED Fc and cetuximab Fab, V domains shown, not shown: another chain or arm of the molecule; a dimerising Fc or GST; small tags and cut ends) VHH: DVQLQESGGGLVQPGGSLRLSCEASGVTFNFYSMTWYRQAPGKERELVADITSEGRTEYAHSVKGRFIISRDDFGTMVYLQMNSLKPEDTAVYYCYTGGSWGQGTQVTVSS', 'pKd', 9.51);

Record request: pKd value, item VHH7 SEEDbody eff- (bispecific antibody, part only; not given: silenced SEED Fc and cetuximab Fab, V domains shown, not shown: another chain or arm of the molecule; a dimerising Fc or GST; small tags and cut ends) VHH: DVQLQESGGGLAQPGGSLRLSCAASGFTFSSYDMGWYRQVPGKECELVAAIFSAGGSTIYADSVKGRFTISRDNAKNTVFLQMNSLKPEDTAVYYCNKAPPFTTIQPTCVMIDTQLGAWGQGTQVTVSS 7.28

What do we get for VHH3 SEEDbody eff- (bispecific antibody, part only; not given: silenced SEED Fc and cetuximab Fab, V domains shown, not shown: another chain or arm of the molecule; a dimerising Fc or GST; small tags and cut ends) VHH: DVQLQESGGGLVQPGESLKLSCLVSGVTYHFYDITWFRQAPGLEREGVSCISYASGTTKFADSVKGRFTISRDNAKNAVYLEMNSLKPEDTAVYFCATQGSGSCSDFMSAGSVLSWGQGTQVTVSS ? 9.55
